Target: Glycogen synthase kinase-3 beta (Homo sapiens)
Settings: Compound concentration 20.0 uM
Description: Thermal Shift Assay. Domain: start/stop: M26-R383
# strict inequality: ΔTm < -0.7 °C yields criterion met, everything else yields criterion not met

Answered examples (10):
Cn1ncc2c(-c3c(-c4ccc(F)cn4)nn4c3COC(C)(C)C4)ccnc21; criterion not met
NC(=S)c1cccc(-c2cn(C3CCN(S(=O)(=O)C(F)(F)F)CC3)c3cc(CNC(=O)C4CNC4)ccc23)c1; criterion met
COc1cc(C(C)C)c2c(c1)S(=O)(=O)N(COc1cc(=O)n3cccc(OCCN4CCCCC4)c3n1)C2=O; criterion not met
COc1ccc(-c2c(-c3ccc(C#N)c(F)c3)nc(N3CCC(N)CC3)n(C)c2=O)cc1F; criterion not met
CCCCCCNC(=O)n1cc(Cl)c(=O)n(C(=O)OCC(C)C)c1=O; criterion met
CC/C(=C(/c1ccc(/C=C/C(=O)O)cc1)c1ccc2[nH]ncc2c1)c1ccc(F)cc1Cl; criterion not met
CC(C)CCn1c(CN2CCN(C(=O)C3CC3)CC2)nc2c1c(=O)n(C)c(=O)n2C; criterion not met
CC(C)c1ccc(C(=O)N=C(N)N)cc1S(C)(=O)=O; criterion met
CNCCC(Oc1ccccc1OC)c1ccccc1 (stereo not drawn); criterion met
OC1CN=C2c3ccn([C@@H]4O[C@H]([C@H](O)c5ccc(Cl)cc5)[C@@H](O)[C@H]4O)c3N=CN21 (stereo partly drawn); criterion met

As a next step, examine the compound that follows.
Q: Report whether reported ΔTm is lower than -0.7 °C (strictly) for O=C(NCc1ccc(F)cc1)C1CCN(S(=O)(=O)c2cc(Cl)cc(Cl)c2)CC1
A: criterion met

----------
Molecular target: Glycogen synthase kinase-3 beta (Homo sapiens)
Conditions: Compound concentration 20.0 uM
Residues, ends and D or L forms follow the SMILES beside them. *: point of attachment. CH2Cl = ClC*
parameter_measured: ΔTm (°C)
Use °C as the unit, but write only the number.

C=CC(=O)Nc1cccc(-c2c[nH]cc2CN(C)CCN)c1; -1.22
Nc1ncnc2nc(-c3ccc(N4CCOCC4)nc3)cc(-c3cccc(Br)c3)c12; -0.95
CC(=O)N[C@@H](Cc1ccccc1)C(=O)N[C@@H](CC(C)C)C(=O)N[C@H](C(=O)N[C@@H](CC(=O)O)C(=O)CCl)[C@@H](C)O (Ac-FLTD-CH2Cl); -0.18

Q: Specify reported ΔTm for the compound shown: Nc1cccc(Nc2ncc(-c3ccc(Cl)cc3)o2)c1
A: 7.51

Q: Specify reported ΔTm for the compound shown: CC(=O)N1CCN([C@H]2CCC[C@@H](NC(=O)c3cc4c(F)ccc(C)c4[nH]3)C2)CC1
A: -1.37

Q: Specify reported ΔTm for the compound shown: Cc1ncsc1-c1ccc(CNC(=O)[C@@H]2C[C@@H](O)CN2C(=O)[C@@H](NC(=O)COCC(C)(COCCOCCOCCNC(=O)C[C@@H]2N=C(c3ccc(Cl)cc3)c3c(sc(C)c3C)-n3c(C)nnc32)COCCOCCOCCNC(=O)C[C@@H]2N=C(c3ccc(Cl)cc3)c3c(sc(C)c3C)-n3c(C)nnc32)C(C)(C)C)cc1
A: -4.05

Q: Specify reported ΔTm for the compound shown: C[C@]1(c2nc3c(C(N)=O)cccc3[nH]2)CCCN1
A: -0.63

----------
Target: Glycogen synthase kinase-3 beta (Homo sapiens) (UniProt P49841)
Sequence (P49841 whole entry, looked up): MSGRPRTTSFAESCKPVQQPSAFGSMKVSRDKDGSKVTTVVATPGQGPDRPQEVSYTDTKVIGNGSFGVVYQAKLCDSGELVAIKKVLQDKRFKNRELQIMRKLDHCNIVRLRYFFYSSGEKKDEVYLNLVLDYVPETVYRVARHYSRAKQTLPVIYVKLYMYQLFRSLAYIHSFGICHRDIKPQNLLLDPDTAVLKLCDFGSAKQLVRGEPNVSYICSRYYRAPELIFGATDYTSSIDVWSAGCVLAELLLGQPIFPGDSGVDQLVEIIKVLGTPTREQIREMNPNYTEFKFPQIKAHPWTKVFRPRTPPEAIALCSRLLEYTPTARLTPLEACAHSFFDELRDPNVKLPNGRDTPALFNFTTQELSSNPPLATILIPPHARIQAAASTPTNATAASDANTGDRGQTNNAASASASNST
Conditions: Compound concentration 20.0 uM
Classification scheme (ΔTm): low (below -0.7 °C), moderate (-0.7 °C to below 0.3 °C), high (0.3 °C or more)

CCCCCCNC(=O)n1cc(F)c(=O)[nH]c1=O; low

Q: Assign a bin to N[C@](CCCCB(O)O)(CCN1CCCCC1)C(=O)O
A: moderate

Q: Assign a bin to CCCN1CCN(c2ccc(C(=O)NC3(C(=O)NCC#N)CCCCC3)cc2)CC1
A: moderate

Q: Assign a bin to C[C@H](NC(=O)CCc1nc2ccccc2c(=O)[nH]1)c1ccccc1
A: moderate

Q: Assign a bin to Cc1nccn1CC1CCc2c(c3ccccc3n2C)C1=O (stereo not drawn)
A: moderate

Q: Assign a bin to Cc1noc(C)c1-c1cc(Cl)c(Nc2ccccc2C(=O)O)c(Cl)c1
A: moderate

Q: Assign a bin to CN1C(=O)c2c(nn(Cc3ccc(-c4cccc(F)n4)cc3)c2Nc2ccccc2)N2C1=N[C@@H]1CCC[C@@H]12
A: high

Q: Assign a bin to Cc1c(CN2CCC(Nc3ncnc4sc(CC(F)(F)F)cc34)CC2)ccc2c1cc(C#N)n2Cc1cn[nH]c1
A: moderate

Q: Assign a bin to CC(=O)N[C@@H](CC(=O)O)C(=O)N[C@@H](CCC(=O)O)C(=O)N[C@H](C(=O)N[C@@H](CC(=O)O)C(=O)CCl)C(C)C
A: high

Q: Assign a bin to c1cncc(-c2cnn[nH]2)c1
A: moderate

Q: Assign a bin to COc1ncc(C)c(-c2ccc3c(c2)[nH]c(=O)c2cnn([C@H]4CCOC4)c23)c1C
A: high

Q: Assign a bin to CC(=O)N[C@@H](Cc1ccc(O)cc1)C(=O)N[C@H](C(=O)N[C@@H](C)C(=O)N[C@@H](CC(=O)O)C(=O)CCl)C(C)C
A: low

Q: Assign a bin to O=C(CCl)Nc1ccc(S(=O)(=O)c2ccc(NC(=O)CCl)cc2)cc1
A: high

Q: Assign a bin to O=[N+]([O-])c1ccc(CSc2ncnc3c2ncn3[C@@H]2O[C@H](CO)[C@@H](O)[C@H]2O)cc1
A: moderate

Q: Assign a bin to CC(C)(C)OC(=O)NCCCCCN(CCc1ccccc1)C(=O)n1cc(-c2ccc(OC(F)(F)F)cc2)nn1
A: low

Q: Assign a bin to C[C@@H](Nc1nc2c(cnn2C2CCCC2)c(=O)[nH]1)C(=O)N1CC[C@H](F)C1
A: high

Q: Assign a bin to CC(=O)O[C@]1(C(C)=O)CC[C@H]2[C@@H]3CCC4=CC(=O)CCC4=C3[C@@H](c3ccc(N(C)C)cc3)C[C@@]21C
A: low

Data provenance: ChEMBL document CHEMBL5724796
